measurementProtocol: protein stability index of a GFP-peptide fusion (GPS, HEK-293T) (PSI 1-6); higher = more stable;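 note: 24-mer peptide tiles fused after GFP, lentivirally expressed, FACS-sorted into six equal bins by GFP/DsRed ratio, decoded by Illumina sequencing, PSI is the read-weighted mean bin number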
settings: treatment: DMSO; c terminus: native
outcomeMeasure: protein stability index
Numbers only.

- sequenceEntry: "SLSVFTEPNRHFYREMQSFSEDI [FBXO33]"
  protein stability index: 3.26
- sequenceEntry: "VAEPLAGPACVTVILPSCVPYNK [KLHL14]"
  protein stability index: 2.32
- sequenceEntry: "SQKYKEGKYIIELNHMIKDNGWD [YPEL3]"
  protein stability index: 2.94
- sequenceEntry: "GAGPPEPLRICPLHISVKEELDG [TRIM35]"
  protein stability index: 4.21
- sequenceEntry: "YMIHEPEPHILLFRRPLPKKPKK [CKS1B]"
  protein stability index: 2.55

Answer for every listed entry: what is its protein stability index? The entries follow.
1. SIKNSLKVAAISESPVAEKSAST [PTGFR]
2. KAPAKKANSTTTAGRDHFLTCGV [BRD3]

// result
1: 4.5; 2: 2.5

----------
measurementProtocol: protein stability index of a GFP-peptide fusion (GPS, HEK-293T) (PSI 1-6); higher = more stable
settings: treatment: MLN4924 1 uM, 8 h; c terminus: a fixed tail appended
Returns one of y or n; y when protein stability index is >= 3.

- sequenceEntry: "IYDNAVQGLRRHEILQWVLQTDSQ [LRRC59]"
  assignedCategory: "n"
- sequenceEntry: "AAIAFTLALFSHLVNHVNIRLQAE [SMG5]"
  assignedCategory: "y"

// query # check: protein stability index of SDNMSHLMVDFAQERQMLQALKFL [FSD1] is greater than or equal to 3
// result n

// query # check: protein stability index of HVAAAVLRIRSVEGRKKAFSTCGS [OR3A1] is greater than or equal to 3
// result n

// query # check: protein stability index of PHDRSQGDWAPPPEGGMEQALAGA [ZNF263] is greater than or equal to 3
// result y

// query # check: protein stability index of TGDGWEFKLADPDEVARRWGKRKN [ETS2] is greater than or equal to 3
// result y

// query # check: protein stability index of AAPWPMAFPYQYPPPPHPYNPHPG [DVL3] is greater than or equal to 3
// result n

// query # check: protein stability index of YAIVRRPTVGIGGDRLQFNQLSQA [EFHC1] is greater than or equal to 3
// result n

// query # check: protein stability index of ACPVCSKMVPRYDLNRHLDEMCAN [FAN1] is greater than or equal to 3
// result n

// query # check: protein stability index of MDSDMDYERPNVETIKCVVVGDNA [RHOBTB2] is greater than or equal to 3
// result y

// query # check: protein stability index of EAFKNILTEIYRIVSQKQIADRAA [RAB11B] is greater than or equal to 3
// result n

// query # check: protein stability index of ISVTAYQNPQITQLKIAANPFAKG [TBX6] is greater than or equal to 3
// result n

// query # check: protein stability index of KERKLECLPPEPSPDDPESVKIIF [FAF2] is greater than or equal to 3
// result y

// query # check: protein stability index of ELERLIDKAMKKDGLVGMAIVGGM [FIS1] is greater than or equal to 3
// result n

// query # check: protein stability index of KETELPFPKQILDQNNVIENEETG [MIA2] is greater than or equal to 3
// result y

// query # check: protein stability index of YTVKDKATGEVLGQFYLDLYPREG [NLN] is greater than or equal to 3
// result n

// query # check: protein stability index of LPGSYLSSECHTSGFVGSGGWFCE [KRT36] is greater than or equal to 3
// result n

// query # check: protein stability index of PNYLANPAFPFIYTPTAEDSAQMQ [ANKRD40] is greater than or equal to 3
// result y
